Molecular target: T1, mouse IL-25 expressed with a C-terminal myc-myc-hexahistidine tag (mouse)
T1 chain: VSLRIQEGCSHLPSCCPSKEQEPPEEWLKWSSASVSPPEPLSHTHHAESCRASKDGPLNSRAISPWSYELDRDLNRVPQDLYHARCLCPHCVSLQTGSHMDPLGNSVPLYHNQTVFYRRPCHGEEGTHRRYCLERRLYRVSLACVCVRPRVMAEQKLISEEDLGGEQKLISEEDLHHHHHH
Test: cell-based or functional assay
Measured Property: IC50, luciferase reporter cells, 10 pM mIL-25-MMH (M)
Your answer should be a plain number; it is taken to be in M.

H4H10871P (antibody, human IgG4, V domains shown, H4H prefix = human IgG4 Fc) VH: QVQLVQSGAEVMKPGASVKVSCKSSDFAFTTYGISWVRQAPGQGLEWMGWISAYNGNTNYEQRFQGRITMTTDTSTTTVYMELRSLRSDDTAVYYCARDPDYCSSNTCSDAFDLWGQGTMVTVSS VL: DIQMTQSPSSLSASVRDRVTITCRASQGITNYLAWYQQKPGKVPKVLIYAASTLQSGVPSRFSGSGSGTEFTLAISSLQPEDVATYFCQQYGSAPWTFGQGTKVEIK : 6.7e-10

Consider the additional binder presented here.
// Input: H4H10876P (antibody, human IgG4, V domains shown, H4H prefix = human IgG4 Fc) VH: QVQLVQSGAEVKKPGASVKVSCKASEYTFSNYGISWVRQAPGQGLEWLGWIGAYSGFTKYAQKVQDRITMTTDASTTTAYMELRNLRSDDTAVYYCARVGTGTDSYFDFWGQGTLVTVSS VL: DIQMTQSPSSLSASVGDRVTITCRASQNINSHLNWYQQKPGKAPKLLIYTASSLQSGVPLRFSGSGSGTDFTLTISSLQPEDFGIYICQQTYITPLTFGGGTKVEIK . Output its IC50, luciferase reporter cells, 10 pM mIL-25-MMH only.
8.8e-10
